All figures here come from PubChem BioAssay (NCI).

tested on: SR leukemia; test: NCI-60 one-dose screen, 48 h (100 = growth as untreated, 0 = no growth, -100 = all killed); conditions: 10 µM
About 83,000 compounds went through this panel and 20% of them were active in at least one assay; those are over-represented in the sample as a whole.
MEASUREMENT NAME: growth (%)
Give the number; % is assumed, so skip it.

Lab note: compound O=C1c2ccccc2CCC1(Br)Br tested on SR leukemia; recorded growth was 0.0746

Field growth (system: SR leukemia) for entry Cc1cc(C)c(N2C(=O)CC(Sc3ccccc3N)C2=O)c(C)c1 (configuration not stated) = 23.4

Considering ClCCn1c(CCl)nc2ccc(Cl)cc21 , its growth with SR leukemia was recorded as -32.4

Recorded growth for O=C1C=CC(=O)N1c1ccc(N2C(=O)C=CC2=O)cc1 on SR leukemia was 0.0539

GET /values?item= CN(C)c1ccc(/C=C/c2ccnc3ccccc23)cc1N &system= SR leukemia returns growth: 41.4

Entry O=C(CNS(=O)(=O)Cc1ccccc1)NNc1ccccc1 , tested on SR leukemia, has a reported growth of 39.2

Fill in: SR leukemia growth for O=Nc1ccc(Nc2ccccc2)cc1 = 28.2

====

tested on: 786-0 renal; assay: NCI-60 one-dose screen, 48 h (100 = growth as untreated, 0 = no growth, -100 = all killed); conditions: 10 µM
This is part of a sample that, as a whole, favours compounds with a hit. Of some 83,000 tested, about 20% had one in any assay.
Consider the following molecules; for each one, report its growth.
The reply should contain only the number, in %.

Per the records, this molecule ( NCc1c(O)ccc2ccccc12 ) has growth equal to 103

Sure, the documented growth for COc1ccc(N)c2c1C(=O)c1ccccc1C2=O is 112

For reference, reported growth for N#C/C(=C/N1C(=O)/C(=C/c2ccc([N+](=O)[O-])cc2)SC1=S)c1nc2ccccc2s1 stands at 94.8

Consider S=C1SCN(CCc2ccccc2)CN1CCc1ccccc1 . Its measured growth is 117

growth recorded for this molecule, COc1ccc2oc(-c3ccc(Cl)cc3)c(N3CCN(C)CC3)c2c1 , is 27.2

Memo: O=S(=O)(c1cc(Cl)ccc1O)c1cc(Cl)ccc1O , reported growth: 86.7

====

System: PC-3 prostate
Test: NCI-60 one-dose screen, 48 h (100 = growth as untreated, 0 = no growth, -100 = all killed)
Conditions: 10 µM
Method: Growth inhibition of the PC-3 human tumor cell line is measured as a screen for anti-cancer activity. Cells are grown in 96 well plates and exposed to the test compound for 48 hours. Compounds are tested at a single concentration, which is 10^-5 M for most compounds. The reported endpoint is percent growth (GI% or GIPRCNT), where numbers from 0 - 100% represent growth inhibition, and numbers from -100% - 0 represent cell death. For example, a value of 40 represents 60% growth inhibition. […]
This is part of a sample that, as a whole, favours compounds with a hit. Of some 83,000 tested, about 20% had one in any assay.
MEASUREMENT NAME: growth (%)
Give just the numeric value; % need not be written.

Reported growth ( CC[C@@]1(OC(=O)CN(C)C)C(=O)OCc2c1cc1n(c2=O)Cc2cc3c(N)cccc3nc2-1 ) = 18

Entry COc1ccc(N)c2c1C(=O)c1ccccc1C2=O , growth reported as 89.6

For record CCOC(=O)[C@]1(Br)CC[C@@]1(Br)C(=O)OCC the listed growth is 97.3

Kindly note the recorded growth for N#CC(=C1C=CC(=NO)C=C1)c1ccccc1 , which is 3.44

# growth of CN(C)CCNc1cccc2sc3ccc(O)cc3c(=O)c12 = 38.7
